Each item that follows carries a reported IC50.
Test system: MCF7
assayExplanation: Cytotoxicity against Homo sapiens (human) MCF-7 cells assessed as survival after 48 hr by MTT assay
Type: functional, cell-based
testConditions: MCF7, 48 h
Form entry: value (µg/mL) — number only.

Below, each entry is followed by its recorded IC50 result.
Brc1ccc2cc3c(nc2c1)[nH]c1ccccc13 42.8
c1ccc2c(c1)ccc1cc3c(nc12)[nH]c1ccccc13 71.4

Could you now look at the following compound, please?
# input compound: Cc1cccc2cc3c(nc12)[nH]c1ccccc13 ; wanted: its IC50
5.5
